PROTOCOL SUMMARY: chemical genetic growth profiling, strain panel (AID 1159580);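 further: tested at 20 µM; growth read once vehicle control cultures reached saturation at 30 °C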
EXPERIMENTAL CONTEXT: S. cerevisiae deletion strains, growth OD, locus YIL073C, strain SPO22, stronger effect = lower value
Among all 5,500 compounds or so, about 2,000 (36%) were called active. About 18% were inconclusive and are not listed. Some of the results follow.
normalized growth strictly less than 1 = rule met. Otherwise rule not met.

Inquiry: State whether 1 exceeds normalized growth recorded for `O=NN(CCCl)C(=O)NCCCl` .
Reply text: rule met

Inquiry: Just wondering, is normalized growth of O=C(O)C1CCCNC1 (stereo not drawn) below 1?
Reply text: rule not met

Inquiry: Given O=c1[nH]c(=O)n(C2C[C@H](O)[C@@H](CO)O2)cc1C(F)(F)F (stereo partly drawn) , is recorded normalized growth strictly lower than 1?
Reply text: rule met

Inquiry: Does the reported normalized growth of the following molecule sit strictly below 1? CC(=O)OC1CC(O)C(C)(C)C2CC(=O)C3(C)C(CCC4(C)C(c5ccoc5)OC(=O)C5OC543)C12C (stereo not drawn)
Reply text: rule not met

Inquiry: Please indicate whether the reported normalized growth of O=c1cccc2n1CC1CC2CN2CCCC[C@@H]12 (stereo partly drawn) is strictly below 1.
Reply text: rule met

Inquiry: Given the entry `NC1(C(=O)O)CC1` , would its reported normalized growth be below 1?
Reply text: rule not met

Inquiry: Given `Cc1ccc(C(=O)c2ccc(CC(=O)O)n2C)cc1` , is recorded normalized growth strictly lower than 1?
Reply text: rule met

Inquiry: Bench note: check whether `NC1(C(=O)O)CCC1` shows normalized growth below 1
Reply text: rule met
